- PROTOCOL_SUMMARY: yeast display, Sf9 membrane polyspecificity reagent, FACS + sequencing; frameworks hold sequencing errors
QUANTITY_MEASURED: polyreactivity (PSR sort gate)

Field: example entries. Status: answers known.
- BIOSEQUENCE: "QVQLVESGGGLDQAGGSLRLSCAASGRTFSYYAMGWYRQAPVKERELVAGISWRGTSTYADSVKGRFTISRDNAKNTFYLQMNRLKPEHTAVYYCNAEVTGHYSYHKFDYWGQGTQVTVSS"
  QUANTITY_MEASURED: "polyreactivity (PSR sort gate)"
  OBSERVED_VALUE: "low polyreactivity"
- BIOSEQUENCE: "QVQLVESGGGLVQAGGSLRLSCAASGRIFRGYVMGWYRQAPGKERELVARITKSGGRTYYADSVKGRFTISRDNAKNTVYLQMNSLKPEDTAVYYCNTAWTGYPRYQYGGNYWGQGTQVTVSS"
  QUANTITY_MEASURED: "polyreactivity (PSR sort gate)"
  OBSERVED_VALUE: "high polyreactivity"
- BIOSEQUENCE: "QVQLVESGGGLVQAGGSLRLSCAASGITFYRNAMGWYRQAPGKERELVAAITWNGGRTYYADSVKGRFTISRDYAKNTVYLQMNSLKPEDSAVYYCAKRYGSTQSRYVYWGQGTQVTVSS"
  QUANTITY_MEASURED: "polyreactivity (PSR sort gate)"
  OBSERVED_VALUE: "high polyreactivity"
- BIOSEQUENCE: "QVQLVESGGGLVQAGGSLRLSCAASGSIFQSYSMGWYRQAPGKERELVAAISRGGSTYYADSVKGRFTISRDNAKNTVYLQMNSLKPEDTAVYYCAAGSGGGKYLYYYWGQGTQVTVSS"
  QUANTITY_MEASURED: "polyreactivity (PSR sort gate)"
  OBSERVED_VALUE: "low polyreactivity"
- BIOSEQUENCE: "QVQLVESGGGLVQAGGSLRLSCAASGRTFARYAMGWYRQAPGKERELVASIRRGTSTNYADSVKGRFTISRDNAKNTVYLQMNSLKPEDTAVYYCAARVGTEGYHGDYWGQGTQVTVSS"
  QUANTITY_MEASURED: "polyreactivity (PSR sort gate)"
  OBSERVED_VALUE: "high polyreactivity"

Value lookup for polyreactivity (PSR sort gate); key = QVQLVESGGGLVQAGGSLRLSCAASGRIFYPYAMGWYRQAPGKERELVAAIRWGGGSTYADSVKGRFTISRDNAKNTVYLQMNSLKPEDTAVYYCAAKSYPYYGYPGAYDYWGQGTQVTVSS
low polyreactivity

Same question for QVQLVESGGGLVQAGGSLRLSCAASGSIFDSNAMGWYRQAPGKERELVAAMDDAGATTYYADSVQGRFTISRDNAKNTVYLQMNSLKPEDTAVYYCAAETYTGSLAYYRVYYYWGQGTQVTVSS please.
low polyreactivity

Subsequent entry: QVQLVESGGGLVQGGGSLRLSCAASGITFCQYAMRWYRQAPGKERELVAGIRFSGSTTYYADSVKGRFTISRDYAKITVYLQMNSLKPEDTAVYDCNVDYYSGLYYYDSWGQGTQVTVSS
low polyreactivity

Same question for QVQLVESGGGLVQAGGSLRLSCAPSGRIIRKNAMGWSRQAPGKERELVAAITSVGSTYYADSVKGRFTISRDNAMNTVYLQMNSLKPEDTAVYYCNALQWSYNRGGYWGQGTQVTVSS please.
high polyreactivity

Cool, now QVQLVESGGRLVQAGGSLRLSCAASAITFGHNAMGWYRQAPGKGRELVATISTRGGSTYADSVKGRFTISRDNAKNTVYLQMNSLKPEDTAVYYCAAPAGGYVPYFYEFDYWGQGTQVTVSS
low polyreactivity

For QVQLVESGGGLVQAGGSLRLSCAASGSIFAGNAMGWYRQAPGKERELVAAISRRGGSTYYADSVKGRFTISRDNAKNTVYLQMNSLKPEDTAVYYCNALLRYAYHAAYGYWGQGTQVTVSS then?
high polyreactivity

Each recorded value in this set is attributed to the nanobody polyreactivity screen of Harvey et al. (2022).
